Cited source: patent US6949542B2

target: rat mGlu2 receptor (Rattus norvegicus, UniProt P31421); construct: expressed in transfected cells; vector pcD1mGR2; test: [3H]-LY354740 binding on mGlu2 transfected CHO cell membranes; conditions: inhibition of 10 nM [3H]-LY354740 binding, mGlu2 transfected CHO cell membranes, room temperature, 1 hour; read-out: Ki mGlu2
Sequence (P31421 19-872): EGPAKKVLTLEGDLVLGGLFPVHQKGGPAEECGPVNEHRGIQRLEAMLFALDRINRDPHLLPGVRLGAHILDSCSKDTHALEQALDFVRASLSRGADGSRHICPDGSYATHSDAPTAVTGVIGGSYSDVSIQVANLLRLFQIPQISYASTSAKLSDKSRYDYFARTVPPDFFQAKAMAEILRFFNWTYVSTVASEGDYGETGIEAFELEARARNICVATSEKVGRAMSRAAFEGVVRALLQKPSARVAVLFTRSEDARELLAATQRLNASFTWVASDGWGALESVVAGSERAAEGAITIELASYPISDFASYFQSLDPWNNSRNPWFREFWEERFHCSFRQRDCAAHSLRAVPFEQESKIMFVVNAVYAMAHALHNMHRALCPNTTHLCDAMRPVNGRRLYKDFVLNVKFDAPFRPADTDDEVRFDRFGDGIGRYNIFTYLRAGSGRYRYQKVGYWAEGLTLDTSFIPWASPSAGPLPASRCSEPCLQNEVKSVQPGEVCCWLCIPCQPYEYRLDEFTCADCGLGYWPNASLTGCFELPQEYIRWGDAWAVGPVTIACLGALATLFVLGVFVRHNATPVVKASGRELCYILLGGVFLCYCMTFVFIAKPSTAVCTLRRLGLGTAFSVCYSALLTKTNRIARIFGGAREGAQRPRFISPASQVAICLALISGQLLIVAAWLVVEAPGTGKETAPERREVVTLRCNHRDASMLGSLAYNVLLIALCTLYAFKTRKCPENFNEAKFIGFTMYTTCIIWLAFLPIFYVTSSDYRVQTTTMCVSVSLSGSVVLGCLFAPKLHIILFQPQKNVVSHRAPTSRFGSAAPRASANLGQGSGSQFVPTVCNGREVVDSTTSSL
experimental-endpoint: Ki (nM)

compound: CCCN(C)c1cc2c(cc1C(F)(F)F)NC(=O)CC(c1cccc(-c3ccnc(C)c3)c1)=N2 [Example 80]
Ki (nM): 5.5

I: Cc1ncccc1-c1cccc(C2=Nc3cc(N(C)C)c(C(F)(F)F)cc3NC(=O)C2)c1 [Example 13]
II: Cc1cc2c(cc1C(F)(F)F)NC(=O)CC(c1cccc(-c3cnccn3)c1)=N2 [Example 87]
III: O=C1CC(c2cccc(-c3cccnc3)c2)=Nc2cc(Cl)c(Cl)cc2N1 [Example 1]
IV: Cc1cc(-c2cccc(C3=Nc4cc(OCC(F)(F)F)c(C(F)(F)F)cc4NC(=O)C3)c2)c(C)cn1 [Example 138]
In: Arrange by Ki, high to low. Answer by naming the labels in the order asked.
Out: II, I, IV, III
(II: 10 nM, I: 6 nM, IV: 3.6 nM, III: 1.35 nM)
